This listing pairs molecules with measured TGI.
system: A498 renal; experiment: NCI tumour cell line growth inhibition, 48 h
metric: TGI

molecule	result
CC1=NN(C(=O)CC(=O)Nc2ccc(C)cc2)C(=O)C1N=Nc1ccc(S(=O)(=O)c2ccc(N=NC3C(=O)N(C(=O)CC(=O)Nc4ccc(C)cc4)N=C3C)cc2)cc1 (stereo not given)	> 100 µM
CC(C)(C)OC(=O)NC(CCC(=O)OCc1ccccc1)C(=O)NCCCO (stereo not given)	> 100 µM
C/C(=N\NC(=O)c1ccncc1)c1ccccc1F	> 10 µM
O=P(CCCCP(=O)(c1ccccc1)c1ccccc1)(c1ccccc1)c1ccccc1.[Cl][Sn]([Cl])([c]1ccccc1)[c]1ccccc1	3.76 µM
CN1C(=O)C(CC(=O)O)NC1=S (stereo not given)	> 100 µM

---

system: DU-145 prostate; assay: NCI tumour cell line growth inhibition, 48 h
This listing pairs compounds with measured TGI.
metric: TGI (µM)

compound	result operator	numeric value
CC(C)(C)OC(=O)N1CCC2(C)CC(=O)CC=C12 (centres undefined)	>	100
COc1cccc(N2C(=O)/C(=C\c3ccccc3)SC2c2cc(OC)c(OC)c(OC)c2)c1 (centres undefined)	>	100
COC(=O)c1cc2cc3c(c(O)c2c(=O)o1)O[C@@]1(Oc2c(O)c4c(c(O)c2[C@H]1OC1CC(OC)C(O)C(C)O1)C(=O)C=C(OC)C4=O)[C@H](O)C3 (some centres undefined)	=	7.87
COc1ccc(OC2OC(COC(c3ccccc3)(c3ccc(OC)cc3)c3ccc(OC)cc3)C(O)C(O)C2O)cc1 (centres undefined)	=	35.7
Oc1cc(-c2ccc(Cl)cc2)cn2c1nc1ccccc12	>	100
CC(=O)c1cccc(Nc2nc3ccc(Cl)cc3c3[nH]c4ccccc4c23)c1	=	26.8
O=C(O)NCC1CCCCC1 (tested in a mixture with another compound)	=	50.7
COc1cc(/C=C2\C(=O)N(c3ccccc3Cl)C(c3ccccc3)S2(=O)=O)cc(OC)c1OC (centres undefined)	>	100

---

test system: SW-620 colon; assay: NCI tumour cell line growth inhibition, 48 h

compound	TGI
CCCCCCCCCCC(C(O)c1ccccc1)N1CCCCC1 (stereo unspecified)	3.21 µM
CC(C)(C)OC(=O)N1CCC2(C)CC(=O)CC=C12 (stereo unspecified)	> 100 µM
COC(=O)C(Cc1ccc(Oc2cc(CC(NC(=O)c3ccccc3)C(=O)OC)ccc2OC)cc1)NC(=O)c1ccccc1 (stereo unspecified)	> 100 µM
COC(=O)NN=C1C(C)(C)C(=O)C1(C)C	> 100 µM
C[C@]12C[C@@H](c3ccccc3)Nc3ccccc3N1C(c1ccccc1)=NO2	> 100 µM
CCOC(=O)[C@@H]1CCN2CN(c3ccc(OC)cc3)N=C(c3ccccc3)[C@@]12c1ccccc1	> 100 µM

---

system: MDA-MB-435
Outcome codes: True for active, False for inactive

compound	measurement target	group
CC[C@@]1(OC(=O)CN)C(=O)OCc2c1cc1n(c2=O)Cc2cc3c(N)cccc3nc2-1	MDA-MB-435	True
Cc1cc2[nH]c(=O)c3c4ccccc4cn3c2cc1C	MDA-MB-435	False
CN(C)CC1C(=O)O[C@H]2[C@H]1CC/C(COC(=O)c1cc3ccccc3[nH]1)=C\CC[C@@]1(C)O[C@@H]21 (stereo not given in full)	MDA-MB-435	False
CCN1Cc2c(ccc(F)c2C#N)O[C@@H](C)CNC(=O)c2c(N)nn3ccc1nc23	MDA-MB-435	False
CCCCCCCCCCCCOC1C(C(COC2OC(C3COC(C)(C)O3)C3OC(C)(C)OC23)NC(=O)NS(=O)(=O)c2ccccc2)OC2OC(C)(C)OC21 (stereo not given)	MDA-MB-435	False
COc1cccc2c1C(=O)c1c(O)c3c(c(O)c1C2=O)C[C@@](O)(C(=O)CO)C[C@@H]3O[C@H]1C[C@H](N)[C@@H](O)[C@H](C)O1	MDA-MB-435	False
O=c1[nH]c(=O)c2cc(C3CC(O)C(CO)O3)ccc2[nH]1 (stereo not given)	MDA-MB-435	False
NC1=C(c2nc(-c3ccccc3)cs2)C(c2ccc(Br)cc2)c2c(c3ccccc3oc2=O)O1 (stereo not given)	MDA-MB-435	False
O=C(c1ccccc1)C(Br)C(Br)c1cccc([N+](=O)[O-])c1 (stereo not given)	MDA-MB-435	False
COc1ccc(/C(=N\O)c2cc(C)c(OC)c(C)c2)cc1O	MDA-MB-435	True

---

tested on: UACC-257 melanoma; test: NCI tumour cell line growth inhibition, 48 h
This listing pairs compounds with measured GI50.

compound	measurement target	GI50
COC(=O)C1=C(C(=O)OC)SC(=C(Cl)C(=S)Nc2ccccc2O)S1	UACC-257 melanoma	12.4 µM
CN(C)CC1C(=O)O[C@H]2[C@H]1CC/C(COC(=O)c1cc3ccccc3[nH]1)=C\CC[C@@]1(C)O[C@@H]21 (stereo partly drawn)	UACC-257 melanoma	1.47 µM
NC1=C(c2nc(-c3ccccc3)cs2)C(c2ccc(Br)cc2)c2c(c3ccccc3oc2=O)O1 (stereo not drawn)	UACC-257 melanoma	> 150 µg/mL

---

This listing pairs compounds with measured TGI.
tested on: SF-295 CNS; experiment: NCI tumour cell line growth inhibition, 48 h

compound	TGI
COc1ccc(N2C(=O)C3c4[nH]c5ccccc5c4C4CC(C)CC(C)C4C3C2=O)cc1 (stereo not drawn)	> 100 µM
CC1OC(OC2C(OC(=O)[C@@H]3CC(C)(C)C[C@@H]4C5=CC[C@@H]6[C@@]7(C)C[C@H](O)[C@H](OC8OC(CO)C(O)C(O)C8O)[C@@](C)(CO)C7[C@H](O)C[C@@]6(C)[C@]5(C)C[C@@H](O)[C@H]43)OCC(O)C2O)C(O)C(O)C1O (stereo partly drawn)	> 15 µM
COC(=O)C(Cc1ccc(Oc2cc(CC(NC(=O)c3ccccc3)C(=O)OC)ccc2OC)cc1)NC(=O)c1ccccc1 (stereo not drawn)	> 100 µM
Cn1ccc2c(C(=O)c3ccccc3)cccc2c1=O	66.9 µM
NC(=S)N/N=C1/CCCC2CCCC[C@@H]12 (stereo partly drawn)	> 100 µM
COC(=O)C1CCCN1C(=O)[C@@H]1CCCN1C(=O)[C@H](Cc1c[nH]c2ccccc12)NC(=S)Nc1cc(C(F)(F)F)cc(C(F)(F)F)c1 (stereo partly drawn)	4.08 µM
O=C(Nc1ccccc1)n1[nH]c(=O)n(-c2ccccc2)c1=O	> 100 µM
Cc1ccc(/C=C2\CN(C)CC3C2=NN(c2ccccc2)C3c2ccc(C)cc2)cc1 (stereo not drawn)	> 100 µM

---

tested on: MDA-N; test: NCI tumour cell line growth inhibition, 48 h
This listing pairs molecules with measured TGI.

molecule	measurement target	TGI
COC(=O)[C@@H](NC(=O)N(CCC#N)CCCN(C(=O)N[C@H](Cc1ccccc1)C(=O)OC)c1ccccc1)C(C)C	MDA-N	> 100 µM
COC(=O)C(Cc1ccc(Oc2cc(CC(NC(=O)c3ccccc3)C(=O)OC)ccc2OC)cc1)NC(=O)c1ccccc1 (centres undefined)	MDA-N	34 µM
OC(c1cc(-c2ccc(Cl)cc2)nc2ccccc12)C1CCCCN1 (centres undefined)	MDA-N	3.7 µM
O=C(c1ccccc1)N1OCCC1Nc1ccc(Br)cc1 (centres undefined)	MDA-N	> 10 µM
COc1ccc(OC2OC(COC(c3ccccc3)(c3ccc(OC)cc3)c3ccc(OC)cc3)C(O)C(O)C2O)cc1 (centres undefined)	MDA-N	17.2 µM
COC(=O)c1cc2cc3c(c(O)c2c(=O)o1)O[C@@]1(Oc2c(O)c4c(c(O)c2[C@H]1OC1CC(OC)C(O)C(C)O1)C(=O)C=C(OC)C4=O)[C@H](O)C3 (some centres undefined)	MDA-N	> 100 µM
CC(C)(C)C(=O)CP(=O)(O)O	MDA-N	> 100 µM
Cc1ccc(N=Nc2ccc(N)cc2C)c(S(N)(=O)=O)c1	MDA-N	> 100 µM
O=C1CCCC1C(O)(C(F)(F)F)C(F)(F)F (centres undefined)	MDA-N	> 100 µM
NC1CC(Cl)c2c(Cl)sc(Cl)c21 (centres undefined)	MDA-N	> 100 µM
O=C(O)NCC1CCCCC1 (tested in a mixture with another compound)	MDA-N	47.7 µM
NC1=C(c2nc(-c3ccccc3)cs2)C(c2ccc(Br)cc2)c2c(c3ccccc3oc2=O)O1 (centres undefined)	MDA-N	> 150 µg/mL
CN1C(=O)C(c2c[nH]c3ccccc23)N(C)C(=O)C1c1c[nH]c2ccccc12 (centres undefined)	MDA-N	> 100 µM
CC1=C(C(=O)N(C(C)C)C(C)C)CC(C(=O)N(C(C)C)C(C)C)=C(C)N1	MDA-N	> 100 µM
COc1c(Br)cc(/C=C(\C#N)c2cccnc2)cc1Br	MDA-N	> 100 µM
Cc1ccc(C(=O)Nc2ccc(CP(=O)(O)O)cc2CP(=O)(O)O)cc1NC(=O)c1cccc(NC(=O)Nc2cccc(C(=O)Nc3cc(C(=O)Nc4ccc(CP(=O)(O)O)cc4CP(=O)(O)O)ccc3C)c2)c1	MDA-N	> 100 µM
CC(=O)N(C(C)=O)n1c(-c2ccccc2)n[nH]c1=O	MDA-N	> 100 µM
C[N+]1(Cc2ccc(Cl)c(Cl)c2)CCCC1C1CCCN(Cc2ccc(Cl)c(Cl)c2)C1 (centres undefined)	MDA-N	> 100 µM
COc1cc(/C=C2\C(=O)N(c3ccccc3Cl)C(c3ccccc3)S2(=O)=O)cc(OC)c1OC (centres undefined)	MDA-N	42.5 µM

Cited source for all entries: PubChem BioAssay (NCI)
